System: Dengue 4 virus MY01-22713
Measurement protocol: High-content imaging cell-based flavivirus immunodetection (HCl-CFI) assay, Dengue 4
Settings: Dengue virus, A549, 48 h, read-out: Dengue 4 virus MY01-22713 in A549 using HCl [Inhibitor/IC50] Qualified AC50, A549 cells, 48 h, viral E protein expression
Structures can show the parent of a compound that is named as a salt.
Property label: EC50

query: Give EC50; test system Dengue 4 virus MY01-22713; compound COC(=O)c1ccccc1CN1CCc2c(sc(NC(=O)Cc3ccc(S(N)(=O)=O)cc3)c2C#N)C1 [Example 91, hydrochloride]
result: 100 to 1000 nM

query: For Dengue 4 virus MY01-22713, give EC50 of the listed compound: N#Cc1c(NC(=O)Cc2ccc(S(N)(=O)=O)cc2)sc2c1CN(CC1CCCC1)CC2 [Example 4]
result: < 100 nM

query: Quote Dengue 4 virus MY01-22713 EC50 for entry N#Cc1c(NC(=O)Cc2ccc(S(N)(=O)=O)cc2)sc2c1CCCN(Cc1cccc(F)c1)C2 [Example 126] .
result: < 100 nM

query: State the measured EC50 (Dengue 4 virus MY01-22713) of CC1Cc2c(sc(NC(=O)Cc3ccc(S(N)(=O)=O)cc3)c2C#N)CN1Cc1cccc(F)c1 (stereo not shown) [Example 122]
result: < 100 nM
